Test system: 598228-144-R-J1-PDC complex spheroid viability;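 also: spheroids exposed to the agents for one week before reading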
Test: Anticancer human tumor 598228-144-R-J1-PDC patient-derived serous endometrial adenocarcinoma cell line growth inhibition [GQUAD]
Conditions: curve of compound
Parameter: IC50

Example entries and their recorded answers appear below.
| Compound | IC50 |
| --- | --- |
| O=c1[nH]cc(F)c(=O)[nH]1 | > 10 µM |
| C=CC(=O)N1CCN(c2nc(=O)n(-c3c(C)ccnc3C(C)C)c3nc(-c4c(O)cccc4F)c(F)cc23)C(C)C1 (stereo not given) | > 10 µM |
| Nc1ccn(C2OC(CO)C(O)C2(F)F)c(=O)n1 (stereo not given) | < 0.0316 µM |

The compound Cn1ncnc1[C@H]1c2n[nH]c(=O)c3cc(F)cc(c23)N[C@@H]1c1ccc(F)cc1 , when measured on 598228-144-R-J1-PDC complex spheroid viability, yielded IC50 of > 0.316 µM

The compound CC(C)n1c(=O)n(C)c2cnc3cc(F)c(-c4ccc(OCCCN5CCCCC5)nc4)cc3c21 , when measured on 598228-144-R-J1-PDC complex spheroid viability, yielded IC50 of > 10 µM
